Source of measurements: patent US8580833B2

Hi there, I'd appreciate the recorded IC50 for every entry that follows.
Structures can show the parent of a compound that is named as a salt.
Express the result in µM but write the number alone.

State its IC50 on RAGE (sRAGE) with S100b as the RAGE ligand (Homo sapiens): CCCCc1nc(-c2ccc(OC[C@@H](O)CNCC)cc2)cn1-c1ccc(Oc2ccc(Cl)cc2)cc1 [Example 12, dihydrochloride] 0.98

For the record CCNC[C@H](O)COc1ccc(-c2cn(-c3ccc(Oc4ccc(Cl)cc4)cc3)c(COCC)n2)cc1 [Example 16, dihydrochloride] , what value of IC50 is listed for RAGE (sRAGE) with S100b as the RAGE ligand (Homo sapiens)? 3.13

Lookup: IC50 / RAGE (sRAGE) with S100b as the RAGE ligand (Homo sapiens) / CCCCc1nc(-c2ccc(OC[C@@H](O)CN(CC)CC)cc2)cn1-c1ccc(Oc2ccc(Cl)cc2)cc1 [Example 4, dihydrochloride] 0.54

API: value(readout= IC50, system= RAGE (sRAGE) with S100b as the RAGE ligand (Homo sapiens), query= CCCCc1nc(-c2ccc(OC[C@@H](O)CN(C)C)cc2)cn1-c1ccc(Oc2ccc(Cl)cc2)cc1 [Example 3, dihydrochloride] ) 0.84

So what IC50 did CCNC[C@@H](O)COc1ccc(-c2cn(-c3ccc(Oc4ccc(Cl)cc4)cc3)c(COCC)n2)cc1 [Example 15, dihydrochloride] get with RAGE (sRAGE) with S100b as the RAGE ligand (Homo sapiens)? 3.14

Recorded IC50 for CCOCc1nc(-c2ccc(OC[C@@H](O)CN(C)C)cc2)cn1-c1ccc(Oc2ccc(Cl)cc2)cc1 [Example 6, dihydrochloride] with RAGE (sRAGE) with S100b as the RAGE ligand (Homo sapiens), please? 0.77
